# assay_target: human Golgi α-mannosidase II (α-hGMII) (Homo sapiens (Human), UniProt Q16706)
# Sequence (Q16706 whole entry): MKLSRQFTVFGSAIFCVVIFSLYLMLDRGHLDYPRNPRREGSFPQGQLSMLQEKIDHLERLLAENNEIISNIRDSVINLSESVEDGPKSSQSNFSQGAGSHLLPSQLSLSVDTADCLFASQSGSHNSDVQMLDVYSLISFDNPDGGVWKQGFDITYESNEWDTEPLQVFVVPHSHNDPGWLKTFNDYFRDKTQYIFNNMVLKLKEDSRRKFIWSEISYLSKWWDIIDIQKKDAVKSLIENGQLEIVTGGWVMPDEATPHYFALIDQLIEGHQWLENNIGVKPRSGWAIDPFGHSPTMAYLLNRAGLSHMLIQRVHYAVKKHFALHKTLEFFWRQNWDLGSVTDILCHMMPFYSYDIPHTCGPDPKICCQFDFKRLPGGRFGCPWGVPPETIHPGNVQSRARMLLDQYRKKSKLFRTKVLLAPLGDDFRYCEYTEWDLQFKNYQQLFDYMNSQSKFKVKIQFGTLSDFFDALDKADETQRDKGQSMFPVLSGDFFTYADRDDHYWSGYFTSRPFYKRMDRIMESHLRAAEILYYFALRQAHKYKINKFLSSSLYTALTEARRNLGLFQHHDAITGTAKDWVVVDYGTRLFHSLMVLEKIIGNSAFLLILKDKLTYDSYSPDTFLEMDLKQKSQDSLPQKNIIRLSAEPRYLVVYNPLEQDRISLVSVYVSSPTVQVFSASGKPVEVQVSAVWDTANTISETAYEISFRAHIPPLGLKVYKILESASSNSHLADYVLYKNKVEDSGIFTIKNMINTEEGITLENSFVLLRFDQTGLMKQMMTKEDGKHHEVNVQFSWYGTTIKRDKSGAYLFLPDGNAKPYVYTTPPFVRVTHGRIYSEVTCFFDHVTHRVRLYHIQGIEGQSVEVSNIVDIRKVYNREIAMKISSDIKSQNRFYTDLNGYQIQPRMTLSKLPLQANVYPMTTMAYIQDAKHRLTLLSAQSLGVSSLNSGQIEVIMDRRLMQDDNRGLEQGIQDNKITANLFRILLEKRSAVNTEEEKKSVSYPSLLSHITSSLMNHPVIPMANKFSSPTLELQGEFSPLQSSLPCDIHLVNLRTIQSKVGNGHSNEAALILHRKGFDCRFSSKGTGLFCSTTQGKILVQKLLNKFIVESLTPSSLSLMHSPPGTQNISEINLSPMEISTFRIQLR
# assay_details: Golgi α-mannosidase II (α-hGMII) activity assay, 4-MU-α-D-mannopyranoside substrate
# Type: biochemical
# experimental_context: selectivity toward α-hGMII than α-hLM
Would you kindly list Selectivity Index (SI) for each of these compounds?
Answers are plain numbers.

Known Selectivity Index (SI) results, listed for orientation:
O[C@H]1[C@H]2[C@H](O)CCCN2C[C@H]1O [Swainsonine, swainsonine, reference compound]	2
O=C(NC[C@@H]1[C@@H](O)[C@@H](O)[C@H]2[C@H](O)CCCN21)c1ccc(-c2ccccc2)cc1	3.4
CCC[C@H]1CC[C@H](c2ccc(C(=O)NC[C@@H]3[C@@H](O)[C@@H](O)[C@H]4[C@H](O)CCCN43)cc2)CC1	4.3
COc1ccc(NC(=S)NC[C@@H]2[C@@H](O)[C@@H](O)[C@H]3[C@H](O)CCCN32)cc1	1.2

Short answer please: Selectivity Index (SI), human Golgi α-mannosidase II (α-hGMII) (Homo sapiens (Human), UniProt Q16706), entry O[C@@H]1[C@H](O)[C@@H](CNC(=S)Nc2ccccc2)N2CCC[C@@H](O)[C@H]12 1.1
